# Assayed target: Serine protease 1 (Homo sapiens)
# Sequence (P07477 whole entry): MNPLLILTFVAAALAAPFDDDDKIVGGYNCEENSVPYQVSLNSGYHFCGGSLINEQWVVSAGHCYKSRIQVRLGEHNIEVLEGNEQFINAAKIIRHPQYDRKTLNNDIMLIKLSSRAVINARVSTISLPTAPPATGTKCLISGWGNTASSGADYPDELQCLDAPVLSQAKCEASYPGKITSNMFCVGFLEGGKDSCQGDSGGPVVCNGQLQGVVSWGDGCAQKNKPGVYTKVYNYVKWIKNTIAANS
Result type: Ki (nM)
Only the number, expressed in nM, is required.

Q: State its Ki: "COc1cccc(S(=O)(=O)Nc2cccn(CC(=O)NCc3ccc(C(=N)N)cc3OC)c2=O)c1"
Result: 11.9

Q: Report Ki for "COC(=O)c1ccc(F)cc1CS(=O)(=O)Nc1ccc(C)n(CC(=O)N[C@H](CCCN=C(N)N)C(=O)O)c1=O"
Result: 16.6

Q: Consider the compound "COc1cccc(S(=O)(=O)Nc2cccn(CC(=O)NCc3ccc(C(=N)N)cc3F)c2=O)c1" . State its measured Ki.
Result: 31.3

Q: Read the entry "Cc1ccc(NS(=O)(=O)Cc2ccccc2)c(=O)n1CC(=O)NCc1ccc(C(=N)N)cc1" and write its reported Ki.
Result: 49.3

Q: Provide measured Ki value, entry: "COc1cccc(S(=O)(=O)Nc2cccn(CC(=O)NCc3ccc(C(=N)N)cc3Cl)c2=O)c1"
Result: 76.5

Q: Quick one: give measured Ki for "Cc1ccc(NS(=O)(=O)Cc2ccccc2F)c(=O)n1CC(=O)N[C@H](CCCNC(=N)N)C(=O)O"
Result: 12.4

Q: Item "Cc1ccc(NS(=O)(=O)Cc2ccccc2)c(=O)n1CC(=O)NCc1ccc(C(=N)N)s1" : provide Ki
Result: 13.6

Q: Annotate the compound "Cc1cnc(NCCc2ccccc2)c(=O)n1CC(=O)NCc1ccc(C(=N)N)cc1" with its measured Ki.
Result: 19.7

###

The next entries give measured Ki for Serine protease 1 (Homo sapiens, UniProt P07477).

Completed entries (count: 6):
> print(dat)
                                   compound                            assayed.target  value.measured
1  Cc1nc(N)ncc1CNC(=O)Cn1c(C)ccc(NS(=O)(=O)Cc2cccc3c2OCCO3)c1=O  Serine protease 1 (Homo sapiens, UniProt P07477)      Not Active
2  Cc1nc(N)ccc1CNC(=O)Cn1c(C)ccc(NS(=O)(=O)Cc2ccccc2)c1=O  Serine protease 1 (Homo sapiens, UniProt P07477)      Not Active
3  Cc1nc(N)nc(C)c1CNC(=O)Cn1c(C)ccc(NS(=O)(=O)Cc2ccccc2)c1=O  Serine protease 1 (Homo sapiens, UniProt P07477)      Not Active
4  Cc1cnc(NCC2(c3ccc(Cl)cc3)CCC2)c(=O)n1CC(=O)NCc1cnc(N)cn1  Serine protease 1 (Homo sapiens, UniProt P07477)      Not Active
5  Cc1nc(N)ncc1CNC(=O)Cn1c(C)cnc(NCCc2ccc3c(c2)CCO3)c1=O  Serine protease 1 (Homo sapiens, UniProt P07477)      Not Active
6  Cc1cnc(NCC(F)(F)c2ccccc2)c(=O)n1CC(=O)NCc1cnc(N)cn1  Serine protease 1 (Homo sapiens, UniProt P07477)      Not Active

Q: Look up Ki of "Cc1cnc(NCCc2ccccc2)c(=O)n1CC(=O)NCc1ccc(C(=N)NO)s1" and report it.
Result: Not Active

Q: Return Ki for the following compound: "Cc1cnc(NCC(F)(F)c2ccc(F)cc2)c(=O)n1CC(=O)NCc1cnc(N)cn1"
Result: Not Active

Q: Hello, please tell me recorded Ki for this one: "Cc1cnc(NCCc2ccccc2)c(=O)n1CC(=O)NCc1ccc(C(=N)NO[Si](C)(C)C(C)(C)C)s1"
Result: Not Active

Q: For the compound "Cc1ccc(NS(=O)(=O)Cc2ccccc2)c(=O)n1CC(=O)NCc1ccc(C(=N)N)c(F)c1" , report Ki.
Result: Not Active

Q: Please list Ki recorded for the compound "Cc1cnc(NCCc2ccccc2)c(=O)n1CC(=O)NC[C@@H]1CNC(N)=N[C@@H]1C"
Result: Not Active

Q: State its Ki for this compound: Cc1ccc(NS(=O)(=O)Cc2ccccc2)c(=O)n1CC(=O)NCC1CN=C(N)NC1 (configuration not stated)
Result: Not Active
